STUDY TARGET: UniProt Q9UPC5
Sequence (Q9UPC5 whole entry): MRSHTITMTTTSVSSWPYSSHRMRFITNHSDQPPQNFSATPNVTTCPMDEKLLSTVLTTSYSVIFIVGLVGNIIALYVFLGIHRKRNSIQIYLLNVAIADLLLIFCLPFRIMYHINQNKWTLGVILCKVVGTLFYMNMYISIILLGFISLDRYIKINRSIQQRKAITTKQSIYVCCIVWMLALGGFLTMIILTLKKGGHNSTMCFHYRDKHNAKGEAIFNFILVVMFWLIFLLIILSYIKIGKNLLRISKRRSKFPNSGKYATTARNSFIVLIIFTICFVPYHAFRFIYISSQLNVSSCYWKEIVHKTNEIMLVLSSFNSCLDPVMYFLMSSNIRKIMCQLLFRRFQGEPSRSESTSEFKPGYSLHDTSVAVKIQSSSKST
EXPERIMENT DESCRIPTION: Antagonist activity at GPR34 (unknown origin) by Tango assay
Type: functional
TEST READOUT: pIC50
Keep it numeric: pIC50 is minus log10 of the concentration in mol/L.

Give the measured pIC50 of O=C(COc1ccc(-c2cccc(Cl)c2)cc1)N[C@@H](Cc1ccc(OCc2ccccc2)cc1)C(=O)O . 7.23

---

STUDY TARGET: Cannabinoid receptor 2 (Homo sapiens, UniProt P34972)
Sequence (P34972 whole entry): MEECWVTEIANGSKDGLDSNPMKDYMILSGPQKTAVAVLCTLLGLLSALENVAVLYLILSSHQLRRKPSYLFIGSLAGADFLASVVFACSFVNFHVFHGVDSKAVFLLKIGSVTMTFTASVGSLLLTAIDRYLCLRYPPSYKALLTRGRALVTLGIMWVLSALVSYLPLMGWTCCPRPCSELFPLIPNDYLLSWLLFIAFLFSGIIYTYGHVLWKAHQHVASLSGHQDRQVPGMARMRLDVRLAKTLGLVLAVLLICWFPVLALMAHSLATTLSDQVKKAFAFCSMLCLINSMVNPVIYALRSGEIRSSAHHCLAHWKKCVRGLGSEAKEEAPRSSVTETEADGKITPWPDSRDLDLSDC
EXPERIMENT DESCRIPTION: Agonist activity at CB2 (unknown origin)
Format: functional
pEC50: −log10 of the molar value.
TEST READOUT: pEC50

State its pEC50 on Cannabinoid receptor 2 (Homo sapiens, UniProt P34972): O=C(COc1ccc(-c2cccc(Cl)c2)cc1)N[C@@H](Cc1ccc(OCc2ccccc2)cc1)C(=O)O < 5.00

---

EXPERIMENT DESCRIPTION: Cytotoxicity against HEK293 cells incubated for 72 hrs by MTT assay
Type: toxicity, cell-based
MEASUREMENT SETUP: human
TEST READOUT: IC50 at 72 h

What value of IC50 at 72 h has been recorded for this entry: O=C(COc1ccc(-c2cccc(Cl)c2)cc1)N[C@@H](Cc1ccc(OCc2ccccc2)cc1)C(=O)O > 30 µM

---

EXPERIMENT DESCRIPTION: Cytotoxicity against African green monkey COS-7 cells incubated for 72 hrs by MTT assay
Assay type: toxicity, cell-based, Chlorocebus aethiops
TEST READOUT: IC50 at 72 h

What does the record list as IC50 at 72 h for O=C(COc1ccc(-c2cccc(Cl)c2)cc1)N[C@@H](Cc1ccc(OCc2ccccc2)cc1)C(=O)O ? > 30 µM

---

STUDY TARGET: UniProt Q9UPC5
EXPERIMENT DESCRIPTION: Antagonist activity at GPR34 (unknown origin) by Glosensor cAMP assay
Format: functional
TEST READOUT: IC50

{"columns": ["ITEM SMILES", "IC50"],
 "data": [
  ["O=C(COc1cccc(F)c1)N[C@@H](Cc1ccc(OCc2ccccc2)cc1)C(=O)O", "13.9 µM"],
  ["N#Cc1cccc(OCC(=O)N[C@@H](Cc2ccc(OCc3ccccc3)cc2)C(=O)O)c1", "17.4 µM"],
  ["COC(=O)[C@H](Cc1ccc(OCc2ccccc2)cc1)NC(=O)COc1ccc(-c2cccc(Cl)c2)cc1", "> 30 µM"],
  ["O=C(COc1ccccc1)N[C@@H](Cc1ccc(OCc2ccccc2)cc1)C(=O)O", "> 30 µM"],
  ["Cn1nccc1-c1ccc(OCC(=O)N[C@@H](Cc2ccc(OCc3ccccc3)cc2)C(=O)O)cc1", "> 30 µM"]
]}

Request body: readout IC50, system UniProt Q9UPC5, query O=C(COc1ccc(-c2cccc(Cl)c2)cc1)N[C@H](Cc1ccc(OCc2ccccc2)cc1)C(=O)O . Return the value. 2.98 µM

Recall the recorded IC50 for O=C(COc1ccc(-c2cccc(Cl)c2)cc1)N[C@@H](CC1CCCCC1)C(=O)O with UniProt Q9UPC5 and state it. > 30 µM

Notebook entry, UniProt Q9UPC5 assay: IC50 of O=C(COc1ccc(F)cc1)N[C@@H](Cc1ccc(OCc2ccccc2)cc1)C(=O)O = ? 11.6 µM

Missing value: IC50, UniProt Q9UPC5, entry O=C(COc1ccccc1F)N[C@@H](Cc1ccc(OCc2ccccc2)cc1)C(=O)O . Fill in? > 30 µM
